tested on: Trichuris muris adult worms; experiment: mean motility score (Paragon pixel variance) of adult worms (arbitrary units); higher = more motile worms, i.e. less anthelmintic effect; extreme values may be limits of the assay; conditions: 100 µM; 24 h
Catalogue of mean motility score values
Please give the numeric answer without any surrounding text.

>>> resultnumber("CCOC(=O)[C@H](CCc1ccccc1)N[C@H]1CCc2ccccc2N(CC(=O)O)C1=O.Cl [benazepril hydrochloride]")
2030

The measured mean motility score associated with CN(C)CC[C@@H](c1ccc(Cl)cc1)c1ccccn1.O=C(O)/C=C\C(=O)O [dexchlorpheniramine maleate] reads 1140

----------
tested on: Trichuris muris adult worms; test: mean motility score (Paragon pixel variance) of adult worms (arbitrary units); higher = more motile worms, i.e. less anthelmintic effect; extreme values may be limits of the assay; conditions: 100 µM; 24 h
Recorded mean motility score by entry
Reply briefly: the number, and no unit.

>>> resultnumber("Cc1cn(-c2cc(NC(=O)c3ccc(C)c(Nc4nccc(-c5cccnc5)n4)c3)cc(C(F)(F)F)c2)cn1")
2370

response.value for O=C1C(O)=C([C@H]2CC[C@H](c3ccc(Cl)cc3)CC2)C(=O)c2ccccc21 (field: mean motility score) = 1650

Just so you know, measured mean motility score for CCCc1cc(O)nc(S)n1 came out at 3720

So, CCC[C@H](N[C@@H](C)C(=O)N1[C@H](C(=O)O)C[C@@H]2CCCC[C@@H]21)C(=O)OCC ? Its mean motility score was 3860

According to the records, this compound COC1=C(OC)C(=O)C(CCCCCCCCCCO)=C(C)C1=O displays mean motility score of 1370

Item: CCCN(CCc1cccs1)[C@H]1CCc2c(O)cccc2C1 | mean motility score: 3100

CC(C)c1ccc2oc3nc(N)c(C(=O)O)cc3c(=O)c2c1 yielded mean motility score of 1570

Short answer for CCN1CCCC1CNC(=O)c1cc(S(N)(=O)=O)ccc1OC (stereo not drawn) [sulpiride] : mean motility score was 2290

For reference, reported mean motility score for CN1CCc2cccc3c2[C@H]1Cc1ccc(O)c(O)c1-3 stands at 2320

Sample NCCCC[C@H](N[C@@H](CCc1ccccc1)C(=O)O)C(=O)N1CCC[C@H]1C(=O)O ; mean motility score observed: 1970

mean motility score for c1ccc2c(CC3=NCCN3)cccc2c1 is 4300

Lab note: measured mean motility score of OCc1ccccc1 was 2390

Data point: c1cnc(N2CCN(Cc3ccc4c(c3)OCO4)CC2)nc1 ; mean motility score = 1950

Summary for this compound, Cc1ccc(S(=O)(=O)NC(=O)NN2CCCCCC2)cc1 [tolazamide] : mean motility score is 4090

Notebook: CCN1CC(CCN2CCOCC2)C(c2ccccc2)(c2ccccc2)C1=O.Cl (stereo not drawn) [doxapram hydrochloride] , mean motility score read as 1820

Kindly note the recorded mean motility score for Br.CCCCCCCCCCCCCCCC[N+](C)(C)CCN(Cc1ccc(OC)cc1)c1ncccn1 [thonzonium bromide] , which is 0

Lab book: mean motility score of O=c1ccc2ccccc2o1 noted as 3690

For Cc1nc2ccc(CN(C)c3ccc(C(=O)N[C@@H](CCC(=O)O)C(=O)O)s3)cc2c(=O)[nH]1 the compound record lists mean motility score as 3030
